Test system: LOC_OS01G10900-cb004;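 note: purified Escherichia coli-expressed rice kinase domain construct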
Assay: thermal shift delta Tm vs DMSO control; higher = stronger stabilization (binding)
Conditions: 12.5 µM; protein concentration 2 µM
Counter-ions that a name gives are not always drawn.
Category | rule: reported thermal shift delta Tm within range, see bucket 1: < 0.4 °C; bucket 2: ≥ 0.4 °C and < 2 °C; bucket 3: ≥ 2 °C

{"columns": ["molecule", "answerLabel"],
 "data": [
  ["OC1CCC(Nc2ncc3nc(Nc4c(F)cc(F)cc4F)n([C@H]4CCOC4)c3n2)CC1 (some centres undefined)", "bucket 1"],
  ["Cc1cn(-c2cc(NC(=O)c3ccc(C)c(Nc4nccc(-c5cnccn5)n4)c3)cc(C(F)(F)F)c2)cn1", "bucket 3"],
  ["CCCNC(=O)Nc1ccc(Oc2ncnc3cc(OC)c(OC)cc23)cc1Cl", "bucket 1"],
  ["CN(C)S(=O)(=O)c1ccc2c(c1)/C(=C/c1cc3c([nH]1)CCCC3)C(=O)N2", "bucket 3"],
  ["C=CC(=O)Nc1cccc(Nc2nc(Nc3ccc(Oc4ccnc(C(=O)NC)c4)cc3)ncc2F)c1", "bucket 2"],
  ["NC[C@@](O)(c1ccc(Cl)cc1)c1ccc(-c2cn[nH]c2)cc1", "bucket 1"],
  ["CNC(=O)c1ccccc1Nc1cc(Nc2ccc(N3CCOCC3)cc2OC)ncc1C(F)(F)F", "bucket 2"],
  ["CCCCCCCCc1ccc(CCC(N)(CO)CO)cc1 [Fingolimod (FTY720) HCl]", "bucket 1"],
  ["CN1c2ccccc2C(=O)Nc2cnc(Nc3ccc(N4CCC(O)CC4)cc3)nc21", "bucket 3"],
  ["CCn1c2ccccc2c2cc(Nc3ccnc(NCCCN4CCOCC4)n3)ccc21", "bucket 2"],
  ["C[C@H](NC(=O)c1c(N)nn2cccnc12)c1cc2cccc(C#Cc3cnn(C)c3)c2c(=O)n1-c1ccccc1", "bucket 1"],
  ["CC#CC(=O)N1CCC[C@H]1c1nc(-c2ccc(C(=O)Nc3ccccn3)cc2)c2c(N)nccn12", "bucket 2"],
  ["C[C@@H](Oc1cc(-c2cnn(C3CCNCC3)c2)cnc1N)c1c(Cl)ccc(F)c1Cl", "bucket 2"],
  ["CNC(=O)CN1CCC(Oc2cc3c(Nc4cccc(Cl)c4F)ncnc3cc2OC)CC1", "bucket 2"],
  ["COc1ccc(-c2ccc3c(N4CCOCC4)nc(N4C[C@@H](C)O[C@@H](C)C4)nc3n2)cc1CO", "bucket 2"],
  ["O=C(NC(NC(=S)Nc1ccc(F)c([N+](=O)[O-])c1)C(Cl)(Cl)Cl)C(c1ccccc1)c1ccccc1 (centres undefined)", "bucket 3"],
  ["CNC(=O)Nc1ccc(-c2nc(N3CC4CCC(C3)O4)c3cnn(C4CCC5(CC4)OCCO5)c3n2)cc1", "bucket 2"],
  ["O=C(O)c1cc(O)c2c(c1)[C@@H]([C@H]1c3cc(C(=O)O)cc(O)c3C(=O)c3c(O[C@@H]4O[C@H](CO)[C@@H](O)[C@H](O)[C@H]4O)cccc31)c1cccc(O[C@@H]3O[C@H](CO)[C@@H](O)[C@H](O)[C@H]3O)c1C2=O [Sennoside B]", "bucket 3"],
  ["O=C(Nc1nccs1)C(c1cc(F)ccc1O)N1Cc2ccccc2C1=O (centres undefined)", "bucket 1"],
  ["O=C(NOCC1CC1)c1ccc(F)c(F)c1Nc1ccc(I)cc1Cl", "bucket 2"],
  ["COc1ccc(-c2ccc3ncc4c(c3c2)n(-c2ccc(N3CCNCC3)c(C(F)(F)F)c2)c(=O)n4C)cn1", "bucket 2"],
  ["COc1cc(Nc2ncc(F)c(Nc3ccc4c(n3)N(COP(=O)(O)O)C(=O)C(C)(C)O4)n2)cc(OC)c1OC [R788 (Fostamatinib) Disodium]", "bucket 1"],
  ["CC(C)(C)Cn1c(N)nc2ccc(-c3[nH]c(C(C)(C)C)nc3-c3ccc(F)cc3)nc21", "bucket 1"],
  ["Cn1cc(-c2ccc3nnc(Sc4ccc5ncccc5c4)n3n2)cn1", "bucket 3"],
  ["C=CC(=O)Nc1cccc(Oc2nc(Nc3ccc(N4CCN(C)CC4)cc3)ncc2Cl)c1", "bucket 3"],
  ["COc1cc2c(Oc3ccc4[nH]c(C)cc4c3F)ncnc2cc1OCCCN1CCCC1", "bucket 1"],
  ["N#Cc1c(Oc2ccc(F)c(NC(=O)Cc3cccc(C(F)(F)F)c3)c2)ccc2nc(NC(=O)C3CC3)sc12", "bucket 1"],
  ["CNS(=O)(=O)Nc1nccc(Cc2c(C)c3ccc(Oc4ncccn4)cc3oc2=O)c1F", "bucket 1"],
  ["Cc1cc(F)c(Nc2ncnc3cc(OCc4ccccc4)ccc23)cc1O", "bucket 2"],
  ["COCCNCc1ccc(-c2cc3nccc(Oc4ccc(NC(=O)C5(C(=O)Nc6ccc(F)cc6)CC5)cc4F)c3s2)nc1", "bucket 3"],
  ["C=CC(=O)N[C@H]1CCOC[C@H]1Nc1ncc2cc(-c3c(Cl)c(OC)cc(OC)c3Cl)ccc2n1", "bucket 3"],
  ["CN1CCN(c2ccc(OC(F)(F)F)c(Nc3ncc4c(n3)-c3c(c(C(N)=O)nn3CCO)CC4)c2)CC1", "bucket 2"]
]}
